Catalogue of compounds with associated pEC50
# Measured On: hSTING (Homo sapiens, UniProt Q86WV6, G230A/H232R/R293Q/R71H)
# Construct: host or cells: THP1-Dual KO-IFNAR2 cells
# Sequence (Q86WV6 whole entry R71H/G230A/H232R/R293Q): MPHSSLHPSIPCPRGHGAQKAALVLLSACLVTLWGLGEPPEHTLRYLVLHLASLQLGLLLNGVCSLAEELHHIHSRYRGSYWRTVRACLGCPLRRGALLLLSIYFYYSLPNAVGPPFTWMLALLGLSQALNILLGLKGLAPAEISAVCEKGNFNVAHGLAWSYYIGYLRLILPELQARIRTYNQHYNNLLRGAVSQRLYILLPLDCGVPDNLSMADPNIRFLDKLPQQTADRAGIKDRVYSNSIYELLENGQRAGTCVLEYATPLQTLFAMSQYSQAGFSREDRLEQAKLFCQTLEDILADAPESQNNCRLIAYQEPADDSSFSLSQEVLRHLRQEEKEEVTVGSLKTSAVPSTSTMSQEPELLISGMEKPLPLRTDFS
# Method Summary: STING reporter assay in THP1-Dual KO-IFNAR2 cells (2'3'cGAMP stimulation, luciferase reporter)
# Format: cell-based
# Condition: 15 μM 2'3'cGAMP, 24 h, class symbols
pEC50: −log10 of the molar value.

{"Substance Smiles": "CC(C)(C)c1cncc(Nc2cc(C#N)nc(Nc3ccc4cc[nH]c4c3)c2)c1", "Measured On": "hSTING (Homo sapiens, UniProt Q86WV6, G230A/H232R/R293Q/R71H)", "pEC50": "5.30 to 6.00"}
{"Substance Smiles": "N#Cc1cc(Nc2ccc3c(c2)OC(F)(F)O3)cc(Nc2ccc3cc[nH]c3c2)n1", "Measured On": "hSTING (Homo sapiens, UniProt Q86WV6, G230A/H232R/R293Q/R71H)", "pEC50": "6.00 to 6.70"}
{"Substance Smiles": "CCc1ccc(Nc2cc(C#N)nc(Nc3ccc4cc[nH]c4c3)c2)cn1", "Measured On": "hSTING (Homo sapiens, UniProt Q86WV6, G230A/H232R/R293Q/R71H)", "pEC50": "5.30 to 6.00"}

# input Bench note: what pEC50 did N#Cc1cc(Nc2ccc(F)c(F)c2)cc(Nc2ccc3cc[nH]c3c2)n1 show?
# output 6.00 to 6.70

# input Fill in the blank: the reported pEC50 of Cc1nn(C)c2ccc(Nc3cc(C#N)nc(Nc4ccc5cc[nH]c5c4)c3)cc12 is ____.
# output 5.30 to 6.00

---

# Measured On: hSTING (Homo sapiens, UniProt Q86WV6, G230A/H232R/R293Q/R71H)
# Construct: host or cells: THP1-Dual KO-IFNAR2 cells
# Method Summary: STING reporter assay in THP1-Dual KO-IFNAR2 cells (2'3'cGAMP stimulation, luciferase reporter)
# Format: cell-based
# Condition: 15 μM 2'3'cGAMP, 24 h, class symbols
Reported Metric: EC50

// solved cases for EC50 follow
{"Substance Smiles": "N#Cc1cc(Nc2ccc3c(c2)CCC3)cc(Nc2cc(Cl)c3cc[nH]c3c2)n1", "EC50": "40 to 200 nM"}
{"Substance Smiles": "N#Cc1cc(Nc2ccc(OCC(F)(F)F)nc2)cc(Nc2cc(Cl)c3cc[nH]c3c2)n1", "EC50": "40 to 200 nM"}
{"Substance Smiles": "N#Cc1cc(N2CCOCC2)cc(Nc2ccc3cc[nH]c3c2)n1", "EC50": "5000 to 100000 nM"}
{"Substance Smiles": "CC1(C)CCN(c2cc(C#N)nc(Nc3cc(Cl)c4cc[nH]c4c3)c2)CC1", "EC50": "200 to 1000 nM"}
{"Substance Smiles": "N#Cc1cc(Nc2ccc3c(c2)CCC3)cc(Nc2ccc3cc[nH]c3c2)n1", "EC50": "200 to 1000 nM"}

# input // lookup EC50 for CC1(C)C(=O)Nc2cc(Nc3cc(C#N)nc(Nc4cc(Cl)c5cc[nH]c5c4)c3)ccc21
# output 200 to 1000 nM

# input Give the measured EC50 of CNC(=O)c1ccc(Nc2cc(C#N)nc(Nc3cc(Cl)c4cc[nH]c4c3)c2)cc1F .
# output 1000 to 5000 nM

# input Which EC50 value belongs to N#Cc1cc(Nc2ccc(Cl)c(F)c2)cc(Nc2cc(Cl)c3cc[nH]c3c2)n1 ?
# output 40 to 200 nM

---

EC50 values, listed per item
# Measured On: hSTING (Homo sapiens, UniProt Q86WV6, G230A/H232R/R293Q/R71H)
# Construct: host or cells: THP1-Dual KO-IFNAR2 cells
# Method Summary: STING reporter assay in THP1-Dual KO-IFNAR2 cells (2'3'cGAMP stimulation, luciferase reporter)
# Type: cell-based
# Condition: 15 μM 2'3'cGAMP, 24 h, class symbols

Solved cases (3 shown):
{"Substance Smiles": "N#Cc1cc(Nc2ccc(F)c(Cl)c2)cc(Nc2ccc3cc[nH]c3c2)n1", "EC50": "200 to 1000 nM"}
{"Substance Smiles": "N#Cc1cc(Nc2ccc3c(c2)OCCO3)cc(Nc2ccc3cc[nH]c3c2)n1", "EC50": "1000 to 5000 nM"}
{"Substance Smiles": "CC(C)c1cncc(Nc2cc(C#N)nc(Nc3cc(Cl)c4cc[nH]c4c3)c2)c1", "EC50": "200 to 1000 nM"}

# input Quick check: EC50 of N#Cc1cc(Nc2cc(F)cc(C(F)(F)F)c2)cc(Nc2ccc3cc[nH]c3c2)n1 ?
# output 200 to 1000 nM

# input Find the recorded EC50 belonging to N#Cc1cc(Nc2cncc(F)c2)cc(Nc2ccc3cc[nH]c3c2)n1 and report it.
# output 1000 to 5000 nM

# input Give the measured EC50 of N#Cc1cc(Nc2ccc(C(F)(F)F)c(Cl)c2)cc(Nc2cc(Cl)c3cc[nH]c3c2)n1 .
# output 200 to 1000 nM

# input Need EC50, item N#Cc1cc(N2CCN(CC(F)(F)F)CC2)cc(Nc2cc(Cl)c3cc[nH]c3c2)n1
# output 1000 to 5000 nM

# input I have this compound here, Cc1nn(C)c2ccc(Nc3cc(C#N)nc(Nc4cc(Cl)c5cc[nH]c5c4)c3)cc12 , and I need its recorded EC50.
# output 200 to 1000 nM

# input Would you mind telling me what EC50 value was observed for N#Cc1cc(Nc2ccc(OC(F)F)nc2)cc(Nc2cc(Cl)c3cc[nH]c3c2)n1 ?
# output 40 to 200 nM

# input Query (compound): N#Cc1cc(Nc2ccc3c(c2)OC(F)(F)C(F)(F)O3)cc(Nc2ccc3cc[nH]c3c2)n1 ; field requested: EC50
# output 200 to 1000 nM

# input Look up EC50 for this compound: N#Cc1cc(Nc2ccc(F)c(Cl)c2)cc(Nc2cc(Cl)c3cc[nH]c3c2)n1
# output 40 to 200 nM

# input // EC50 lookup, key: COc1cc(Nc2cc(C#N)nc(Nc3ccc4cc[nH]c4c3)c2)cnc1Cl
# output 1000 to 5000 nM

# input Param item = CC(C)CN1CCN(c2cc(C#N)nc(Nc3ccc4cc[nH]c4c3)c2)CC1 ; retrieve measured EC50.
# output 1000 to 5000 nM

# input Dear colleague, I am looking for the recorded EC50 of the following compound: N#Cc1cc(Nc2cc(Cl)cc(Cl)c2)cc(Nc2ccc3cc[nH]c3c2)n1
# output 200 to 1000 nM

# input Looking for the measured EC50 of COc1ccc(Nc2cc(C#N)nc(Nc3ccc4cc[nH]c4c3)c2)cn1 , can you help?
# output 1000 to 5000 nM

# input Quick one: EC50 of Cc1nc2cc(Nc3cc(C#N)nc(Nc4cc(Cl)c5cc[nH]c5c4)c3)ccc2s1 ?
# output 200 to 1000 nM

# input Param item = N#Cc1cc(Nc2cc(F)cc(C(F)(F)F)c2)cc(Nc2cc(Cl)c3cc[nH]c3c2)n1 ; retrieve measured EC50.
# output 200 to 1000 nM

---

# Measured On: hSTING (Homo sapiens, UniProt Q86WV6, G230A/H232R/R293Q/R71H)
# Construct: host or cells: THP1-Dual KO-IFNAR2 cells
# Method Summary: STING reporter assay in THP1-Dual KO-IFNAR2 cells (2'3'cGAMP stimulation, luciferase reporter)
# Type: cell-based
# Condition: 15 μM 2'3'cGAMP, 24 h, class symbols
pEC50: −log10 of the molar value.
Quick reference for pEC50 among some compounds

{"Substance Smiles": "N#Cc1cc(Nc2cc(Cl)cc(Cl)c2)cc(Nc2cc(Cl)c3cc[nH]c3c2)n1", "pEC50": "6.00 to 6.70"}
{"Substance Smiles": "COc1cc(Cl)cc(Nc2cc(C#N)nc(Nc3cc(Cl)c4cc[nH]c4c3)c2)c1", "pEC50": "6.70 to 7.40"}
{"Substance Smiles": "N#Cc1cc(Nc2ccc(OC(F)F)nc2)cc(Nc2ccc3cc[nH]c3c2)n1", "pEC50": "6.00 to 6.70"}
{"Substance Smiles": "CC1(C)C(=O)Nc2cc(Nc3cc(C#N)nc(Nc4ccc5cc[nH]c5c4)c3)ccc21", "pEC50": "5.30 to 6.00"}
{"Substance Smiles": "N#Cc1cc(N2CCC(Oc3ccccc3)CC2)cc(Nc2ccc3cc[nH]c3c2)n1", "pEC50": "6.00 to 6.70"}

# input Please report the recorded pEC50 for N#Cc1cc(Cl)cc(Nc2cc(C#N)nc(Nc3ccc4cc[nH]c4c3)c2)c1 .
# output 6.00 to 6.70

# input // lookup pEC50 for N#Cc1cc(Nc2ccc3cc[nH]c3c2)cc(Nc2ccc3cc[nH]c3c2)n1
# output 6.00 to 6.70

# input Which pEC50 value is on record for N#Cc1cc(Nc2ccc(Cl)c(F)c2)cc(Nc2ccc3cc[nH]c3c2)n1 ?
# output 6.00 to 6.70
